// provenance: PubChem BioAssay (EPA / NIEHS)

Read-out: Monokine induced gamma interferon (MIG), CXCL9 (gene 4283)
Assay: BSK_CASM3C_MIG: BioMAP Diversity Plus: CASM3C Assay for Monokine induced gamma interferon (MIG) Biomarker Activity (AID 2283048);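 also: MIG protein level measured by ELISA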
Settings: primary human coronary artery smooth muscle cells; actives raise or lower the signal
Activity calls are given as the source filed them. The calls were made as follows: active = hit-call score of the fitted dose curve at least 0.9, where 1 is the maximum; inactive = score below 0.9.
Pick one: active, inactive

Record request — test call for `Oc1ccc(/C=C/c2cc(O)cc(O)c2)cc1` inactive

Outcome? `O=C(O)C(F)(F)C(F)(F)C(F)(F)C(F)(F)C(=O)O` inactive

// param item: `Oc1c(Cl)cc(Cl)c(Cl)c1Cl` ; yields the recorded call inactive

Which outcome did this test record for the molecule `Nc1cccc(N)n1` ? inactive

Look up the recorded call for `C=CC(=O)NC(C)(C)C` in this test. inactive

Query: recorded result category for `c1ccc(Nc2cccc3ccccc23)cc1` in this test inactive

I'd appreciate the recorded outcome for `CCOC(=O)/C=C\C(=O)OCC` from this test. inactive

I would be grateful if you could indicate the recorded call for `O=C(Oc1ccccc1)c1ccccc1C(=O)Oc1ccccc1` . inactive

GET /call?item= `C1CNCCN1` returns the recorded outcome of this test. inactive

Identify the outcome logged in this assay for the molecule shown: `c1ccc2sc(SSN3CCOCC3)nc2c1` active

For `C[N+](C)(C)CCCNS(=O)(=O)C(F)(F)C(F)(F)C(F)(F)C(F)(F)C(F)(F)C(F)(F)C(F)(F)C(F)(F)F` , which call appears in the assay record? inactive

Outcome logged for `CCOC(=O)C1=NOC(c2ccccc2)(c2ccccc2)C1` in this assay: inactive

Per the records of this test, what outcome belongs to `Oc1ccccc1Cc1ccccc1O` ? inactive

Which outcome did this test record for the molecule `CC1=CC=C(C(C)C)CC1` ? inactive

* * *

Biological target: Nuclear respiratory factor 1 (Homo sapiens)
Assay: ATG_NRF1_CIS: Attagene CIS-FACTORIAL HepG2 Assay for human Nuclear Respiratory Factor 1 (NRF1) Orphan Gene (AID 2282987)
Conditions: HepG2 NRF1 cis-element reporter, Attagene multiplex; actives raise or lower the signal
Activity calls are given as the source filed them. How the source made its calls: active means hit-call score of the fitted dose curve at least 0.9, where 1 is the maximum; inactive means score below 0.9.
Your reply should match one of these outcome classes. Yes = active, No = inactive

Answer briefly: the call reported for `CC(C)c1cc(C(C)C)cc(C(C)C)c1` in this assay. Yes

Which outcome was assigned to `CC(=O)CCC=C(C)C` in this test? No

What did this assay record as the result for COC(=O)CC(C)CCC=C(C)C (stereo not given) ? No

Per the records of this test, what outcome belongs to `O=C(O)CCCC(=O)O` ? No

Short answer needed: outcome of this test for `CN(C)Cc1cc(CN(C)C)c(O)c(CN(C)C)c1` ? No

How did this test come out for CC(C=O)c1ccccc1 (stereo not given) ? No

Short answer needed: outcome of this test for `Cc1ccc2c(c1)CCCN2` ? No

Hey, what did the test say about `C=CC(=O)NCOCCCC` ? No

Which result was noted for this compound in the test: `N=C1C=CC(=C(c2ccc(N)cc2)c2ccc(N)cc2)C=C1` Yes

Lab log entry: `CC1(C)C(=O)N(CO)C(=O)N1CO` — outcome as called in the assay? No

Please state the recorded outcome for this compound: `CCCCCCCCCCCCCc1ccccc1` No

Call for entry `CCCCCCOc1ccc(N)cc1` : Yes

Hi, sorry to bother you, what did the test record for `CCN1CCCC1=O` ? No

# outcome recorded in this test, key = `COc1cc(C)ccc1O` No

Hello, I am checking results. What call was entered for `C=CC(=O)OCCCCCCOC(=O)C=C` ? No

Field: outcome | Entry: `NNS(=O)(=O)c1ccc(Oc2ccc(S(=O)(=O)NN)cc2)cc1` No

What did the test return for `COc1ccc(C(=O)c2ccccc2)c(O)c1` ? No

Which result was noted for this compound in the test: CCC(C)(O)CCCC(C)C (stereo not given) No

Returns: the outcome recorded for `CCCCCCCCCCCC(C)=O` in this assay. Yes

Can you look up the reported call for `CCCCCCCCCC[N+](C)(CCCCCCCCCC)CCC[Si](OC)(OC)OC` for me? No

Could you please tell me the result logged for `CC(=O)C(C)C` in this assay? No

Which outcome was entered for the compound `Cc1c(Cl)cccc1Cl` in this test? No

Tell me the recorded outcome of this test for `c1ccc2sc(SSN3CCOCC3)nc2c1` . Yes

Recorded test call requested for `CC(=O)OCCc1ccccc1` No

For `CCCCCCCC(=O)OCC` , which call appears in the assay record? No

Recorded test outcome, item `CCNc1nc(NC(C)(C)C)nc(OC)n1` No

Which outcome was assigned to `COc1ccc(-c2coc3cc(O)cc(O)c3c2=O)cc1` in this test? Yes

# lookup: test call for `CCOc1ccc(NC(N)=O)cc1` No

Lab log entry: `O=C(Cl)c1ccc(C(=O)Cl)cc1` — outcome as called in the assay? No

Fill in: this test's call for CCC(C)C(=O)OCCc1ccccc1 (stereo not given) is ___ No

Dear all, I need the recorded test outcome for `Oc1ccc(/C=C/c2cc(O)cc(O)c2)cc1` , thank you. Yes

Which outcome was entered for the compound CC(C)COC(=O)CC(C(=O)OCC(C)C)S(=O)(=O)O (stereo not given) in this test? No

Would you mind telling me which call this test gave `NC(=O)Nc1ccccc1` ? No

How was `CCOC(=O)CC(=O)c1ccccc1` classified in this test? No

Query: recorded result category for CCC(C)C(=O)OC (stereo not given) in this test No

What call does the record list for `C=CC(=O)O[C@H]1C[C@@H]2CC[C@@]1(C)C2(C)C` ? No

Would you mind telling me which call this test gave CC1CCC(C(C)(C)S)C(=O)C1 (stereo not given) ? No

// return assay outcome for `CC(=O)c1ccccc1O` No

Look up the recorded call for `C1CCSC1` in this test. No

Give the logged outcome of this assay for the following compound: `C=Cc1ccc(OC(C)=O)cc1` No

Called result for C=C(C)C1CC=C(C)CC1 (stereo not given) No

What did this assay record as the result for `Cc1cccc(C(C)(C)C)c1O` ? No

GET /call?item= `COc1ccc(C(=O)/C(Br)=C\C(=O)O)cc1` returns the recorded outcome of this test. No

Can you look up the reported call for CCCCCC[C@@H](O)C/C=C\CCCCCCCC(=O)OCC(O)CO (stereo not given in full) for me? Yes

Hi, sorry to bother you, what did the test record for `CCCCCOC(=O)CCCCC` ? No

Could you kindly confirm the outcome this assay logged for C=C(C)C1CC=C(C)C(OC(C)=O)C1 (stereo not given) ? No

# outcome recorded in this test, key = `COC(=O)C=Cc1ccccc1` No

Per the records of this test, what outcome belongs to `Cc1cc(C)n(CO)n1` ? No

I would be grateful if you could indicate the recorded call for `CC(=O)OCC=C(C)C` . No

Please state the recorded outcome for this compound: `COC(OC)(C(=O)c1ccccc1)c1ccccc1` No

In this assay, the call recorded for `CC(C)(C)NC(=O)[C@H]1CC[C@H]2[C@@H]3CC[C@H]4NC(=O)C=C[C@]4(C)[C@H]3CC[C@]12C` was what? No

What classification did `CCCCCCCCCCCCCC(=O)OC(C)C` end up with in this test? No

I'd appreciate the recorded outcome for `Cc1cc(C)c(C=O)c(C)c1` from this test. No

Recorded call for `C=CCCCCCCCCC=O` ? No

Which outcome was assigned to `Cc1c(O)cccc1O` in this test? No

Dear colleague, could you share the recorded outcome for C=CC(=O)OCC(C)OCC(C)OCC(C)OC(=O)C=C (stereo not given) when you have a moment? No

For `Cc1ccc(C)c(OCCCC(C)(C)C(=O)O)c1` , which call appears in the assay record? No

Can you look up the reported call for `CCOC(=O)c1ccccc1C` for me? No

For `Nc1nc(N)nc(-c2ccccc2)n1` , what call appears in the results of this test? No

Record lookup: outcome of this test for `O=S(=O)(O)c1ccc(Nc2nc(Nc3ccc(C=Cc4ccc(Nc5nc(Nc6ccc(S(=O)(=O)O)cc6)nc(N(CCO)CCO)n5)cc4S(=O)(=O)O)c(S(=O)(=O)O)c3)nc(N(CCO)CCO)n2)cc1` ? No

* * *

Experiment: ACEA_AR_antagonist_AUC_viability: ACEA Biosciences xCELLigence Real-Time Cell Analysis on Androgen Receptor Antagonism for Viability (AID 2283776);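 also: 22Rv1 human prostate cancer cells growing on impedance electrode plates; area under impedance growth curve at 80 h after dosing as viability; hits lower the growth signal relative to DMSO meaning cytotoxicity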
Inconclusive results are not listed. Activity calls are given as the source filed them. How the source made its calls: active means hit-call score of the fitted dose curve at least 0.9, where 1 is the maximum; inconclusive means response in the unintended direction; inactive means score below 0.9.
metric-name: AC50

compound	metric-name	result
CC1=NN(c2ccc(S(=O)(=O)O)cc2)C(=O)C1N=Nc1ccccc1 (stereo not drawn)	AC50	inactive
c1ccc(Nc2cccc3ccccc23)cc1	AC50	2.4 µM (active)
Cc1ccc([N+](=O)[O-])cc1N	AC50	inactive
Cc1ccc(C)c(OCCCC(C)(C)C(=O)O)c1	AC50	inactive
CCOC(=O)c1ccccc1C	AC50	inactive

Let us move to another entry and its AC50.
Entry `C1CNCCN1` has what AC50? inactive
